B1: CPEB3 Ribozyme (parent)
chain: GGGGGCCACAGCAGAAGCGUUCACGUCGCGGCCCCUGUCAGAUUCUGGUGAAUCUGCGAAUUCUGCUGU

Variants of: B1
Test: self-cleavage, relative activity (ratio to wild type); higher = more cleavage; co-transcriptional
The entries below are paired with their reported self-cleavage.

Answered examples (5):
variant_notation="C22G C45G" quantity=self-cleavage recorded_value=0.229
variant_notation="G19U A60U" quantity=self-cleavage recorded_value=0.168
variant_notation="C6A U69C" quantity=self-cleavage recorded_value=1.03
variant_notation="G25U C54U" quantity=self-cleavage recorded_value=0.121
variant_notation="G19C U26A" quantity=self-cleavage recorded_value=0.13

Need self-cleavage of U20A U53C , thanks.
0.154

Next: G17C C34A
0.18

Next: G5A C9A
1.01

Next: U20A U67C
0.127

Next: G48U C63U
1.03

Next: C34A U69G
0.947

Next: A13U A59C
0.33

Next: C35G U69G
0.545

Data provenance: the RNAGym collection of RNA variant scans (doi:10.7554/elife.80360)
